// reported Ki per item
Subject Of Test: Alpha-2C adrenergic receptor (Homo sapiens, UniProt P18825)
Sequence (P18825 whole entry): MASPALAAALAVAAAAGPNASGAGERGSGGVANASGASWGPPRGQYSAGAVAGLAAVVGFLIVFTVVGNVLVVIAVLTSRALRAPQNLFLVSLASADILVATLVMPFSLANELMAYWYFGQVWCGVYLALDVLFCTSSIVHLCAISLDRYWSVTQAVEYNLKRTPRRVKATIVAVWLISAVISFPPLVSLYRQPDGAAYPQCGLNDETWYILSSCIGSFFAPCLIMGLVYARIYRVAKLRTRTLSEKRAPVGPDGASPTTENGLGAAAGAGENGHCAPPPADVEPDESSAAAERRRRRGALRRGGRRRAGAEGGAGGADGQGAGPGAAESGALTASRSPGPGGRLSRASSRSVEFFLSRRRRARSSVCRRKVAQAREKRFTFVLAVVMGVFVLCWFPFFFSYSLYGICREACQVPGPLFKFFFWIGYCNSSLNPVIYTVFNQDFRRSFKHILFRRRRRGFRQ
Assay Remarks: DRUGMATRIX: Adrenergic Alpha-2C radioligand binding (ligand: [3H] MK-912)
Type: cell membranes, Sf9, Membrane
Measurement Conditions: read-out: Ki
Numbers only here, please. The scale is nM.

get_value(item= CCCCCCCCNC(C)C(O)c1ccc(SC(C)C)cc1 (centres undefined) [SULOCTIDIL] , readout=Ki) returns 501

get_value(item= CC(C)C[C@H]1C(=O)N2CCC[C@H]2[C@]2(O)O[C@](NC(=O)[C@@H]3C=C4c5cccc6[nH]cc(c56)C[C@H]4N(C)C3)(C(C)C)C(=O)N12 [ERGOCRYPTINE] , readout=Ki) returns 5.48

get_value(item= CN(C)CCC=C1c2ccccc2CCc2ccccc21 [AMITRIPTYLINE] , readout=Ki) returns 8.6

get_value(item= CCN(CC)CCCC(C)Nc1c2ccc(Cl)cc2nc2ccc(OC)cc12 (centres undefined) [QUINACRINE] , readout=Ki) returns 560

###

Subject Of Test: Carbonic anhydrase 2 (Homo sapiens, UniProt P00918)
Assay Remarks: DRUGMATRIX: Carbonic Anhydrase II enzyme inhibition (substrate: 4-Nitrophenyl acetate (4-NPA))
Assay type: tissue-based, Erythrocyte
Measurement Conditions: erythrocyte; Not Active = under 50% inhibition at 10 µM
Observation Type: IC50

- Compound: "CC(C)(C(=O)O)c1ccc(C(O)CCCN2CCC(C(O)(c3ccccc3)c3ccccc3)CC2)cc1 (stereo not drawn) [FEXOFENADINE]"
  Subject Of Test: "Carbonic anhydrase 2 (Homo sapiens, UniProt P00918)"
  IC50: "Not Active"
- Compound: "CC(C)NC[C@@H](O)COc1cccc2ccccc12 [DEXPROPRANOLOL]"
  Subject Of Test: "Carbonic anhydrase 2 (Homo sapiens, UniProt P00918)"
  IC50: "Not Active"
- Compound: "CC(=O)OCC(COC(C)=O)OC(C)=O [TRIACETIN]"
  Subject Of Test: "Carbonic anhydrase 2 (Homo sapiens, UniProt P00918)"
  IC50: "Not Active"
- Compound: "N=C(N)c1ccc(OCCCCCOc2ccc(C(=N)N)cc2)cc1 [PENTAMIDINE]"
  Subject Of Test: "Carbonic anhydrase 2 (Homo sapiens, UniProt P00918)"
  IC50: "Not Active"
- Compound: "NC(=O)N1c2ccccc2CC(=O)c2ccccc21 [OXCARBAZEPINE]"
  Subject Of Test: "Carbonic anhydrase 2 (Homo sapiens, UniProt P00918)"
  IC50: "Not Active"
- Compound: "C[C@@H]1O[C@@H](O[C@H]2C[C@@H](O)[C@]3(CO)[C@H]4[C@H](O)C[C@]5(C)[C@@H](C6=CC(=O)OC6)CC[C@]5(O)[C@@H]4CC[C@]3(O)C2)[C@H](O)[C@H](O)[C@H]1O [OUABAIN]"
  Subject Of Test: "Carbonic anhydrase 2 (Homo sapiens, UniProt P00918)"
  IC50: "Not Active"

get_value(item= C[N+](C)(C)CCOC(=O)CCC(=O)OCC[N+](C)(C)C.[Cl-].[Cl-] [SUCCINYLCHOLINE CHLORIDE] , readout=IC50) returns Not Active

get_value(item= CN1[C@@H]2CC[C@H]1C[C@@H](OC(c1ccccc1)c1ccccc1)C2 [BENZTROPINE] , readout=IC50) returns Not Active

###

Subject Of Test: Melanocortin receptor 3 (Homo sapiens, UniProt P41968)
Sequence (P41968 whole entry): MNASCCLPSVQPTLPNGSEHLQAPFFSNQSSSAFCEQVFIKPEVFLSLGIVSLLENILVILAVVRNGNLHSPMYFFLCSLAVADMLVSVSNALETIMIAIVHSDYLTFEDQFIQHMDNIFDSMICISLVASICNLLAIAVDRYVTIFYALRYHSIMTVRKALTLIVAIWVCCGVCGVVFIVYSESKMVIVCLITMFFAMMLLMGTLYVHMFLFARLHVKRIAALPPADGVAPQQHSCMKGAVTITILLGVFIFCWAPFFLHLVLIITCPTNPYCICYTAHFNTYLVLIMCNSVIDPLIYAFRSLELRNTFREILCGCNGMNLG
Type: cell membranes, Membrane
Measurement Conditions: hek293
Observation Type: IC50

- Compound: "CN(C)C(=N)NC(=N)N"
  IC50: "Not Active"
- Compound: "CN(C)C(=O)Oc1cccc([N+](C)(C)C)c1.[Br-] [NEOSTIGMINE BROMIDE]"
  IC50: "Not Active"
- Compound: "CC(C)(C(=O)O)c1ccc(C(O)CCCN2CCC(C(O)(c3ccccc3)c3ccccc3)CC2)cc1 (centres undefined) [FEXOFENADINE]"
  IC50: "Not Active"
- Compound: "C#C[C@]1(O)CC[C@H]2[C@@H]3CCC4=CC(=O)CC[C@]4(C)[C@H]3CC[C@@]21C"
  IC50: "Not Active"
- Compound: "N=C(N)c1ccc(OCCCCCOc2ccc(C(=N)N)cc2)cc1"
  IC50: "Not Active"
- Compound: "Cc1cccc(C)c1NC(=O)C1CCCCN1C (centres undefined) [MEPIVACAINE]"
  IC50: "Not Active"
- Compound: "NC12CC3CC(CC(C3)C1)C2"
  IC50: "Not Active"
- Compound: "CC(=O)OC[C@H]1O[C@@H](n2ncc(=O)[nH]c2=O)[C@H](OC(C)=O)[C@@H]1OC(C)=O"
  IC50: "Not Active"
- Compound: "C[C@]12CC[C@H]3[C@@H](CCC4=CC(=O)CC[C@@H]43)[C@@H]1CC[C@@H]2O"
  IC50: "Not Active"
- Compound: "Cc1cc(O)cc(C)c1Cl"
  IC50: "Not Active"

get_value(item= CN(C)C(=O)C(CCN1CCC(O)(c2ccc(Cl)cc2)CC1)(c1ccccc1)c1ccccc1 [LOPERAMIDE] , readout=IC50) returns Not Active

get_value(item= Nc1ccc(S(=O)(=O)NC(=O)c2ccccc2)cc1 [SULFABENZAMIDE] , readout=IC50) returns Not Active

get_value(item= `C[C@H]1COc2c(N3CCN(C)CC3)c(F)cc3c(=O)c(C(=O)O)cn1c23.C[C@H]1COc2c(N3CCN(C)CC3)c(F)cc3c(=O)c(C(=O)O)cn1c23.O` , readout=IC50) returns Not Active

get_value(item= CC(C)NCC(O)c1ccccc1Cl (centres undefined) , readout=IC50) returns Not Active

get_value(item= CCCNC(C)C(=O)Nc1ccccc1C (centres undefined) , readout=IC50) returns Not Active

get_value(item= `CC(C)NC[C@@H](O)COc1cccc2ccccc12` , readout=IC50) returns Not Active

###

Subject Of Test: C-X-C chemokine receptor type 1 (Homo sapiens, UniProt P25024)
Sequence (P25024 whole entry): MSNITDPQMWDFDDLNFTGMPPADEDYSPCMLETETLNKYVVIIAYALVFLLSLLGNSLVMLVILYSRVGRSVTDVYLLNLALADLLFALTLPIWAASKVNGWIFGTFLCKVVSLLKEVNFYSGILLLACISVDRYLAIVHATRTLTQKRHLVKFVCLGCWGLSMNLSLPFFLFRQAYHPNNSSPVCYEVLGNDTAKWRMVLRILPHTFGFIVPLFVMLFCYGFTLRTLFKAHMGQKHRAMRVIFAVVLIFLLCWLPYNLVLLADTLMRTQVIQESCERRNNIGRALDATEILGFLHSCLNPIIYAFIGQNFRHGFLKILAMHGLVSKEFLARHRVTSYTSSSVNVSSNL
Observation Type: IC50

Observe how each entry below is paired with its result.
- Compound: "C[C@]12CC[C@@H]3c4ccc(O)cc4CC[C@H]3[C@@H]1C[C@@H](O)[C@@H]2O"
  Observation Type: "IC50"
  Assay Value: "Not Active"
- Compound: "CC(C)c1c(C(=O)Nc2ccccc2)c(-c2ccccc2)c(-c2ccc(F)cc2)n1CC[C@@H](O)C[C@@H](O)CC(=O)O"
  Observation Type: "IC50"
  Assay Value: "Not Active"
- Compound: "O=C(O)c1ccccc1O"
  Observation Type: "IC50"
  Assay Value: "Not Active"
- Compound: "CC(O)(P(=O)(O)O)P(=O)(O)O"
  Observation Type: "IC50"
  Assay Value: "Not Active"
- Compound: "NNCCc1ccccc1"
  Observation Type: "IC50"
  Assay Value: "Not Active"

get_value(item= `O=C1C[C@@H]2OCC=C3CN4CC[C@]56c7ccccc7N1[C@H]5[C@H]2[C@H]3C[C@H]46` , readout=IC50) returns Not Active

get_value(item= `CCOC(=O)c1ncn2c1CN(C)C(=O)c1cc(F)ccc1-2` , readout=IC50) returns Not Active

get_value(item= Nc1ccc(S(=O)(=O)NC(=O)c2ccccc2)cc1 [SULFABENZAMIDE] , readout=IC50) returns Not Active

get_value(item= `C[C@]12CC[C@H]3[C@@H](CCC4=CC(=O)CC[C@@H]43)[C@@H]1CC[C@@H]2O` , readout=IC50) returns Not Active

get_value(item= `CCN(C(C)=O)c1cccc(-c2ccnc3c(C#N)cnn23)c1` , readout=IC50) returns Not Active

###

Subject Of Test: Muscarinic acetylcholine receptor M5 (Homo sapiens, UniProt P08912)
Sequence (P08912 whole entry): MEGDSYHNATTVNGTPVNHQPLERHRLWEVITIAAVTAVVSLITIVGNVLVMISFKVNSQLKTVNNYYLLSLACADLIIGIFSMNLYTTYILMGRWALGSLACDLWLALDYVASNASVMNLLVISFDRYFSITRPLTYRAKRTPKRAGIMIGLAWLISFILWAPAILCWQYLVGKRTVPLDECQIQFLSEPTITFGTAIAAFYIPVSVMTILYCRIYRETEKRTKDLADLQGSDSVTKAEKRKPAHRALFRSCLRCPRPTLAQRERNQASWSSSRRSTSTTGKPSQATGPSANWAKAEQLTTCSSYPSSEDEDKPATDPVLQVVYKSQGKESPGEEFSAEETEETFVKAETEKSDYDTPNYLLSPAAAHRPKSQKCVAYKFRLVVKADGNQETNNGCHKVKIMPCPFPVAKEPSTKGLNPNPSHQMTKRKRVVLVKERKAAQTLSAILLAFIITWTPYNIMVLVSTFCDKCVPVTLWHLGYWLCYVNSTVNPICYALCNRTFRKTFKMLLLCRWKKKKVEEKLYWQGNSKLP
Assay type: cell membranes, CHO-K1, Membrane
Measurement Conditions: read-out: IC50
pIC50: −log10 of the molar value.
The label depends only on pIC50: class 1 if it is at least 6, class 0 if it is smaller.

- Compound: "CN1CCC(=C2c3ccccc3CC(=O)c3sccc32)CC1 [KETOTIFEN]"
  Subject Of Test: "Muscarinic acetylcholine receptor M5 (Homo sapiens, UniProt P08912)"
  Assigned Category: "class 1"
- Compound: "N=C(N)c1ccc(OCCCCCOc2ccc(C(=N)N)cc2)cc1 [PENTAMIDINE]"
  Subject Of Test: "Muscarinic acetylcholine receptor M5 (Homo sapiens, UniProt P08912)"
  Assigned Category: "class 0"
- Compound: "CN1CCCC(CN2c3ccccc3Sc3ccccc32)C1 (stereo not given) [MEPAZINE]"
  Subject Of Test: "Muscarinic acetylcholine receptor M5 (Homo sapiens, UniProt P08912)"
  Assigned Category: "class 1"
- Compound: "CN1CCN(C(c2ccccc2)c2ccccc2)CC1 [CYCLIZINE]"
  Subject Of Test: "Muscarinic acetylcholine receptor M5 (Homo sapiens, UniProt P08912)"
  Assigned Category: "class 1"

Lab note: next compound to report on.
Is pIC50 for CCCCCCCCNC(C)C(O)c1ccc(SC(C)C)cc1 (stereo not given) [SULOCTIDIL] at or above 6?
class 0
